# SYSTEM: human ether-à-go-go-related gene (hERG) potassium channel (human);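 further: peak tail current of the secondary pulse compared with the same well before compound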
# PROTOCOL_SUMMARY: primary screen, population patch clamp on CHO cells stably expressing hERG; higher = less effect of the substance
Out of some 310,000 compounds screened, about 14,000 (4.5%) showed an effect of 50% or more. Effects have a minus sign here. This is one part of a sample in which strong results are shown more often than they occur.
Could you please report measured hERG current change (%, negative = inhibition) at 10uM for the items listed next?
Numbers only, in %.

Example results:
GIVEN_SMILES	UNITS_OF_MEASURE	MEASURED_RESULT
Cc1cc(NC(=O)CSc2nnc(-c3ccncc3)n2Cc2ccccc2)n(-c2ccccc2)n1	%	-58.8
CCOC(=O)c1c(-c2ccc(C)o2)csc1NC(=O)COC(=O)c1cccs1	%	-12
CC1CCN(c2ccccc2NC(=O)c2ccc(Br)o2)CC1	%	-0.73
CCOC(=O)N1CCN(CC(=O)Nc2cc(C)nn2-c2nc3ccccc3s2)CC1	%	-23.3
Cl.NC(N)=NC(N)=Nc1ccc(SC(F)(F)F)cc1	%	-21.3

I would be grateful if you could provide hERG current change (%, negative = inhibition) at 10uM for each of the following entries.
1. CNC(=O)CSc1nnc(-c2ccncc2)n1Cc1ccccc1
2. CC(=O)N1CCN(c2ccccc2NC(=O)c2ccco2)CC1
3. COCCn1c(SCC(=O)Nc2cc(C(C)(C)C)nn2-c2ccccc2)nnc1-c1ccncc1
4. COCCn1c(SCC(=O)Nc2cc(C(C)(C)C)nn2-c2ccccc2)nc2ccccc2c1=O

1: 9.26; 2: -38.9; 3: -60; 4: -4.39

Need hERG current change (%, negative = inhibition) at 10uM for each of these molecules.
1. COCCN1CCN(C(=O)c2ccc3oc(CCc4ccccc4)nc3c2)CC1
2. COc1cccc(NC(=O)N2CCC(C(N)=O)(N3CCCCC3)CC2)c1
3. CC(=O)N1CCN(c2ccccc2NC(=O)c2ccc(Br)o2)CC1
4. CCOC(=O)c1cccc(N2C(N)=NC(N)=NC2(C)C)c1.Cl
5. COCCn1c(SCC(=O)Nc2nnc(C)s2)nnc1-c1ccncc1

1: -30.1; 2: 6.17; 3: -54.4; 4: -1.9; 5: -0.996

COC(=O)c1ccc(-n2c(C)cc(C(=O)CSc3cccc[n+]3[O-])c2C)cc1 has a reported hERG current change (%, negative = inhibition) at 10uM of 21.2

---

# SYSTEM: human ether-à-go-go-related gene (hERG) potassium channel (human, UniProt Q12809);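 further: peak tail current of the secondary pulse compared with the same well before compound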
# Sequence (Q12809 whole entry, looked up): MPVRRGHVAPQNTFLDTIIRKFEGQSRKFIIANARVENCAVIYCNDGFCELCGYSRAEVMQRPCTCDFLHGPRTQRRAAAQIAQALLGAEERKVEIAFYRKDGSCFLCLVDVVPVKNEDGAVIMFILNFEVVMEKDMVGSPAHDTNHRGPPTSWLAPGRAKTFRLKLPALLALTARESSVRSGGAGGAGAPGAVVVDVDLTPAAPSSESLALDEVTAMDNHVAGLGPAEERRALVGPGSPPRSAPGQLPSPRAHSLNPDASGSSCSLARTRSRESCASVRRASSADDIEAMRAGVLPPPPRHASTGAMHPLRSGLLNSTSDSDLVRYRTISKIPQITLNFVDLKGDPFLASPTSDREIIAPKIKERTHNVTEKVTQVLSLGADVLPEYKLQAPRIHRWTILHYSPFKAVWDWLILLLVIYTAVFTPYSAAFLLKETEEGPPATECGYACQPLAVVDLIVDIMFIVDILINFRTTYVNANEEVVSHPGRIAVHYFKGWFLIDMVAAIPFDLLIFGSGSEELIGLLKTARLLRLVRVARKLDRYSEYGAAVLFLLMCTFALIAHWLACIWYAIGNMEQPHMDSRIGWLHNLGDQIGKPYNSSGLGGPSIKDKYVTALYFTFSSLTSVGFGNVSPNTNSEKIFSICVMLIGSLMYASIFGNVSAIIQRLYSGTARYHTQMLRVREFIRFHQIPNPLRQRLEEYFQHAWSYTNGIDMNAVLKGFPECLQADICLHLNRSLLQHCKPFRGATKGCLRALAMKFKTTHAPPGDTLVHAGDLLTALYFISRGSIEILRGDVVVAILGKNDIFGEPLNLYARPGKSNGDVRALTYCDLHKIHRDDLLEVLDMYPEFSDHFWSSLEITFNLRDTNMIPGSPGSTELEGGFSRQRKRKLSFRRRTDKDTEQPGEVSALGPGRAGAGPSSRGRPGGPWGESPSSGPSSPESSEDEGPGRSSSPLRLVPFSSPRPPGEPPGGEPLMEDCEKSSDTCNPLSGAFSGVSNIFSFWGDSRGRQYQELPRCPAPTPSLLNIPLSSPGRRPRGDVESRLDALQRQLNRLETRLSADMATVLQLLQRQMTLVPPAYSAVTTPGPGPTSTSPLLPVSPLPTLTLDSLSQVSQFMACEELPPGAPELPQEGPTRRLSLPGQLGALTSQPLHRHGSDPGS
# PROTOCOL_SUMMARY: primary screen, population patch clamp on CHO cells stably expressing hERG; higher = less effect of the substance
The campaign covered roughly 310,000 compounds. About 14,000 (4.5%) showed an effect of 50% or more. Effects have a minus sign here. The list comes from a sample in which strong results are over-represented; it also holds close analogues and randomly drawn compounds.
OBSERVABLE: hERG current change (%, negative = inhibition) at 10uM (%)
Answers are plain numbers, in %.

Study these solved cases before continuing.
MOLECULE	UNITS_OF_MEASURE	MEASURED_RESULT
COc1ccccc1N(Cc1ccccc1)S(=O)(=O)c1cccc(C(=O)NC2CC(C)(C)NC(C)(C)C2)c1	%	-73.4
COc1cccc(/C=C/C(=O)NNC(=O)c2ccncc2)c1	%	-20.5
CC1(C)CC(NC(=O)c2ccc(Cl)c(S(=O)(=O)N(Cc3ccccc3)c3ccccc3)c2)CC(C)(C)N1	%	-62.3

Record hERG current change (%, negative = inhibition) at 10uM for all entries; do not skip any.
1. CC1(c2ccccc2Cl)NC(=O)N(CC(=O)Nc2ccc(N3CCCCC3)cc2)C1=O (stereo not shown)
2. CCc1nc(N2CCN(C(=S)NCCCOC)CC2)c2c3c(sc2n1)CCCC3
3. O=C(CSc1nc2[nH]ncc2c(=O)n1-c1ccccc1)c1ccc2c(c1)OCCO2

1: -21.9; 2: -9.32; 3: -6.39

---

# SYSTEM: human ether-à-go-go-related gene (hERG) potassium channel (human, UniProt Q12809);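 further: peak tail current of the secondary pulse compared with the same well before compound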
# PROTOCOL_SUMMARY: primary screen, population patch clamp on CHO cells stably expressing hERG; higher = less effect of the substance
The whole screen tested about 310,000 compounds, of which about 14,000 (4.5%) showed an effect of 50% or more. The effect is printed as a negative number. Many of the other results were omitted from the sample, so strong results are more common in it than they were.
Consider the following molecules; for each one, report its hERG current change (%, negative = inhibition) at 10uM.
Give bare numbers, in %.

Examples from the recorded data:
MOLECULE	UNITS_OF_MEASURE	MEASURED_RESULT
O=C(NCc1nc2ccccc2[nH]1)C1=C[C@H](c2ccc(Br)cc2)C[C@H](OCc2ccc(CO)cc2)O1	%	3.89
CCOCCCn1c(SCC(=O)Nc2ccccc2)nc2ccccc2c1=O	%	-29.4
O=C(NCC1CCCO1)c1onc(CSc2ccc(F)c(F)c2)c1C(=O)O (stereo not shown)	%	1.63
CC(C)OCCCn1c(SC(C)C(=O)NCC2CCCO2)nc2cc(Cl)ccc2c1=O (stereo not shown)	%	-20.6
NC(=O)C1=C[C@H](C2CCCCC2)C[C@H](OCc2ccc(CO)cc2)O1	%	2.51
O=C(NCc1nc2ccccc2[nH]1)C1=C[C@H](c2ccccc2)C[C@H](OCc2ccc(CO)cc2)O1	%	-13.6
Cc1ccc2nc3c(cc(C(=O)NCC4CCCO4)c(=N)n3CCCOC(C)C)c(=O)n2c1 (stereo not shown)	%	-71.8
CCOc1ccc(C(=O)Nc2c(C(N)=O)oc3ccccc23)cc1	%	11.9
COCCCn1c(C(=O)N2CC(C)OC(C)C2)cc2c(=O)n3ccccc3nc21 (stereo not shown)	%	-9.36
CCOCCCn1c(SCC(=O)Nc2ccccc2OC)nc2ccccc2c1=O	%	-45

Batch of 6 molecules: report hERG current change (%, negative = inhibition) at 10uM for each.
1. Cc1nc2ccccc2c(=O)n1-c1ccc(F)cc1
2. O=C(NCc1nc2ccccc2[nH]1)C1=C[C@@H](c2csc3ccccc23)C[C@@H](OCCCCO)O1
3. O=P(O)(O)O.c1ccc(CN(CC2=NCCN2)c2ccccc2)cc1
4. O=C(Nc1c(C(=O)N2CCC(N3CCCCC3)CC2)oc2ccccc12)c1c(F)cccc1F
5. CCCc1c(C)nc(N2CCN(c3ccccc3OC)CC2)[nH]c1=O
6. C=CCNc1scc(-c2ccccc2)[n+]1CC=C.[Br-]

-12.1
-29.6
-17.3
-51.7
25.2
-21.4

---

# SYSTEM: human ether-à-go-go-related gene (hERG) potassium channel (human);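 further: peak tail current of the secondary pulse compared with the same well before compound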
# PROTOCOL_SUMMARY: primary screen, population patch clamp on CHO cells stably expressing hERG; higher = less effect of the substance
# Method: Briefly, Chinese hamster ovary (CHO) cells stably expressing the hERG channel were dislodged from tissue culture flasks and dispensed into PPC plates. […] During the recording, background leak currents were estimated by a 100 ms step to -80 mV from an initial holding potential of -70 mV and subtracted from the subsequent current measurement. The campaign was conducted in two phases using slight differences in recording protocol. […]
In all, about 310,000 compounds went through this assay and about 14,000 (4.5%) showed an effect of 50% or more. The effect is printed as a negative number. The sample as a whole holds a higher share of strong results than the screen did.
// Criterion not met strictly below -40% in hERG current change (%, negative = inhibition) at 10uM; Criterion met otherwise

Here's what some known entries look like.
COMPOUND	DISCRETE_LABEL
Cc1ccc2nc3c(cc(C#N)c(=O)n3-c3nccs3)c(=O)n2c1	Criterion met
O=C(CN1C(=O)/C(=C/c2ccc(C(F)(F)F)cc2)Sc2ccccc21)NCCCN1CCOCC1	Criterion not met
CCC1(c2ccccc2)NC(=O)N(CC(=O)Nc2cc(Cl)ccc2N2CCOCC2)C1=O (centres unmarked)	Criterion met
CCCn1c(=N)c(C#N)cc2c(=O)n3cccc(C)c3nc21	Criterion not met
NC(=O)c1cccnc1Nc1cccc(F)c1	Criterion met
CCC1(c2ccccc2)NC(=O)N(CC(=O)Nc2cc(Cl)ccc2N2CCN(C)CC2)C1=O (centres unmarked)	Criterion not met
CCN(CCCNC(=O)c1nn(C)c2c1CS(=O)(=O)c1ccccc1-2)Cc1ccccc1	Criterion not met
Cc1ccccc1CCN1CCCC(CN(C)C(=O)C(=O)c2ccco2)C1 (centres unmarked)	Criterion not met
CCOc1cc2c(cc1OC)C(NC(=O)C(F)(F)F)CC2=O (centres unmarked)	Criterion met
C=CCN1CCN(C(c2ccccc2OC)c2nnnn2C(C)(C)C)CC1.Cl (centres unmarked)	Criterion met

Evaluate CSc1ccc(Cl)c(C(=O)N(C)CC(=O)Nc2ccc(N3CCOCC3)cc2)c1 : hERG current change (%, negative = inhibition) at 10uM at minimum -40%?
Criterion met

hERG current change (%, negative = inhibition) at 10uM >= -40% for CC1CCN(CCCNC(=O)c2nn(C)c3c2CS(=O)(=O)c2ccccc2-3)CC1 ?
Criterion met

Given CN(CCCNC(=O)c1nn(C)c2c1CS(=O)(=O)c1ccccc1-2)Cc1ccccc1 , state whether its hERG current change (%, negative = inhibition) at 10uM is at least -40%.
Criterion not met

Check the entry CCC1(c2ccccc2)NC(=O)N(CC(=O)Nc2ccccc2C(=O)NC2CCCC2)C1=O (centres unmarked) : does hERG current change (%, negative = inhibition) at 10uM equal or exceed -40%?
Criterion not met

Record O=C(CN1C(=O)/C(=C/c2cccc(Br)c2)SC1=S)NCCCN1CCOCC1 ; criterion: hERG current change (%, negative = inhibition) at 10uM no lower than -40%. Met?
Criterion met

Please indicate if the recorded hERG current change (%, negative = inhibition) at 10uM for CN(C(=O)COC(=O)C12CC3CC(CC(C3)C1)C2)c1c(N)n(Cc2ccccc2)c(=O)[nH]c1=O meets or exceeds -40%.
Criterion met

Can CCC1(c2ccccc2)NC(=O)N(CC(=O)Nc2ccccc2C(=O)NC2CC2)C1=O (centres unmarked) be said to have hERG current change (%, negative = inhibition) at 10uM at or above -40%?
Criterion met

Would you say CCC(C)n1c(=N)c(C#N)cc2c(=O)n3cccc(C)c3nc21 (centres unmarked) shows hERG current change (%, negative = inhibition) at 10uM at minimum -40%?
Criterion not met

Does hERG current change (%, negative = inhibition) at 10uM meet or surpass -40% for CC(C)N(CCCNC(=O)c1nn(C)c2c1CS(=O)(=O)c1ccccc1-2)Cc1ccccc1 ?
Criterion met

I'd appreciate it if you could say whether CN1CCN(c2ccc(Cl)cc2NC(=O)CN2C(=O)NC(C)(c3ccccc3)C2=O)CC1 (centres unmarked) has hERG current change (%, negative = inhibition) at 10uM at least equal to -40%.
Criterion met

Please tell me: is the compound CCOC(=O)c1c(-c2ccc(OC)cc2)oc2ccc(OC(=O)N(C)C)cc12 at or over -40% in terms of hERG current change (%, negative = inhibition) at 10uM?
Criterion met

Is hERG current change (%, negative = inhibition) at 10uM for O=C(CCCN1C(=O)/C(=C/c2cccc(Br)c2)SC1=S)NCCCN1CCOCC1 at or above -40%?
Criterion met
